- System: HH (T-Cell Non-Hodgkin's Lymphoma)
- Test protocol: Bliss excess, mean over the matrix (fraction); higher = more synergy;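 note: after 72 h of two-drug dosing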
We use -0.03 as the dividing line for Bliss excess: on or above the line is yes (1), below is no (0).

Compound	Category
Cn1cnc2c(F)c(Nc3ccc(Br)cc3Cl)c(C(=O)NOCCO)cc21 [Selumetinib] + C[C@@H]1COCCN1C2=NC(=NC(=C2)C3(CC3)[S@](=N)(=O)C)C4=C5C=CNC5=NC=C4 [AZD6738] (first compound max 10 µM, 7x7, partner max 10 µM)	no (0)
Cc1cc2ncnn2cc1Nc1ncc2c(n1)n(C1CCOCC1)c(=O)n2C [AZD7648] + COc1cc([C@@H]2c3cc4c(cc3[C@@H](O[C@@H]3O[C@@H]5CO[C@@H](C)O[C@H]5[C@H](O)[C@H]3O)[C@H]3COC(=O)[C@H]23)OCO4)cc(OC)c1O [Etoposide] (first compound max 10 µM, 7x7, partner max 10 µM)	yes (1)
Cc1c2c(nn1C)CSCc1cc(n(C)n1)CSc1cc(c3ccccc3c1)OCCCc1c(C(=O)O)n(C)c3c-2c(Cl)ccc13 [AZD5991] + CC(=O)O[C@H]1C(=O)[C@@]2(C)[C@H]([C@H](OC(=O)c3ccccc3)[C@]3(O)C[C@H](OC(=O)[C@H](O)[C@@H](NC(=O)c4ccccc4)c4ccccc4)C(C)=C1C3(C)C)[C@]1(OC(C)=O)CO[C@@H]1C[C@@H]2O [Paclitaxel] (first compound max 1 µM, 7x7, partner max 3 µM)	yes (1)
N#Cc1cnc(Nc2cc(NC[C@H]3CNCCO3)c(C(F)(F)F)cn2)cn1 [SRA737] + Nc1ccn([C@@H]2O[C@H](CO)[C@@H](O)C2(F)F)c(=O)n1 [Gemcitabine] (first compound max 10 µM, 7x7, partner max 0.3 µM)	yes (1)
Cc1cc2ncnn2cc1Nc1ncc2c(n1)n(C1CCOCC1)c(=O)n2C [AZD7648] + CCN(CCO)CCCOc1ccc2c(Nc3cc(CC(=O)Nc4cccc(F)c4)[nH]n3)ncnc2c1 [AZD2811] (first compound max 10 µM, 7x7, partner max 1 µM)	no (0)

# check: Bliss excess of C=CCn1c(=O)c2cnc(Nc3ccc(N4CCN(C)CC4)cc3)nc2n1-c1cccc(C(C)(C)O)n1 [AZD1775] + C[C@@H]1COCCN1C2=NC(=NC(=C2)C3(CC3)[S@](=N)(=O)C)C4=C5C=CNC5=NC=C4 [AZD6738] (first compound max 1 µM, partner max 10 µM) is greater than or equal to -0.03
yes (1)

State whether the measured Bliss excess reaches -0.03, counting equality as reaching it, for Cn1cnc2c(F)c(Nc3ccc(Br)cc3Cl)c(C(=O)NOCCO)cc21 [Selumetinib] + CCN(CCO)CCCOc1ccc2c(Nc3cc(CC(=O)Nc4cccc(F)c4)[nH]n3)ncnc2c1 [AZD2811] (first compound max 10 µM, 7x7, partner max 1 µM)
no (0)
